- experimental parameters: in acetonitrile, 293.15 K
result type: solubility (mole fraction)
A bare number is all that is needed in reply.

INPUT: What measured solubility (mole fraction) goes with CCS(=O)(=O)O.COC(=O)c1ccc2c(C(=Nc3ccc(N(C)C(=O)CN4CCN(C)CC4)cc3)c3ccccc3)c(O)[nH]c2c1 ?
OUTPUT: 2.17e-05

====

- experimental parameters: in isopropanol, 298.15 K
result type: solubility (mole fraction)
Please state the value as a number alone, without comment.

INPUT: Could you tell me which solubility (mole fraction) is on file for CCS(=O)(=O)O.COC(=O)c1ccc2c(C(=Nc3ccc(N(C)C(=O)CN4CCN(C)CC4)cc3)c3ccccc3)c(O)[nH]c2c1 ?
OUTPUT: 4.44e-05

====

- experimental parameters: in acetonitrile, 298.15 K
result type: solubility (mole fraction)

INPUT: What does the record list as solubility (mole fraction) for CCS(=O)(=O)O.COC(=O)c1ccc2c(C(=Nc3ccc(N(C)C(=O)CN4CCN(C)CC4)cc3)c3ccccc3)c(O)[nH]c2c1 ?
OUTPUT: 2.89e-05

====

- experimental parameters: in acetonitrile, 278.15 K
result type: solubility (mole fraction)
Please reply with the value in numeric form only.

INPUT: Any idea what solubility (mole fraction) was measured for CCS(=O)(=O)O.COC(=O)c1ccc2c(C(=Nc3ccc(N(C)C(=O)CN4CCN(C)CC4)cc3)c3ccccc3)c(O)[nH]c2c1 ?
OUTPUT: 9.42e-06

====

- experimental parameters: in ethanol, 303.15 K
result type: solubility (mole fraction)
Reply briefly: the number, and no unit.

INPUT: Give its solubility (mole fraction) value. Item: CCS(=O)(=O)O.COC(=O)c1ccc2c(C(=Nc3ccc(N(C)C(=O)CN4CCN(C)CC4)cc3)c3ccccc3)c(O)[nH]c2c1
OUTPUT: 0.00035

====

- experimental parameters: in DMF, 303.15 K
result type: solubility (mole fraction)
Response field accepts a number only; no unit should be typed.

INPUT: Recorded solubility (mole fraction) of CCS(=O)(=O)O.COC(=O)c1ccc2c(C(=Nc3ccc(N(C)C(=O)CN4CCN(C)CC4)cc3)c3ccccc3)c(O)[nH]c2c1 , please.
OUTPUT: 0.00206

====

- experimental parameters: in n-propanol, 298.15 K
result type: solubility (mole fraction)
Field format: numeric only.

INPUT: Requested field: solubility (mole fraction). Item: CCS(=O)(=O)O.COC(=O)c1ccc2c(C(=Nc3ccc(N(C)C(=O)CN4CCN(C)CC4)cc3)c3ccccc3)c(O)[nH]c2c1
OUTPUT: 0.000131

====

- experimental parameters: in isopropanol, 283.15 K
result type: solubility (mole fraction)
Answer using only a numeral; do not append any unit.

INPUT: For the molecule shown here, CCS(=O)(=O)O.COC(=O)c1ccc2c(C(=Nc3ccc(N(C)C(=O)CN4CCN(C)CC4)cc3)c3ccccc3)c(O)[nH]c2c1 , give the reported solubility (mole fraction).
OUTPUT: 1.93e-05

====

- experimental parameters: in ethanol, 308.15 K
result type: solubility (mole fraction)
Reply briefly: the number, and no unit.

INPUT: Look up solubility (mole fraction): CCS(=O)(=O)O.COC(=O)c1ccc2c(C(=Nc3ccc(N(C)C(=O)CN4CCN(C)CC4)cc3)c3ccccc3)c(O)[nH]c2c1
OUTPUT: 0.0004

====

- experimental parameters: in isopropanol, 293.15 K
result type: solubility (mole fraction)
Give your answer as a number; write no unit.

INPUT: Which value of solubility (mole fraction) has been reported for CCS(=O)(=O)O.COC(=O)c1ccc2c(C(=Nc3ccc(N(C)C(=O)CN4CCN(C)CC4)cc3)c3ccccc3)c(O)[nH]c2c1 in the records?
OUTPUT: 3.39e-05
